molecular target: L-lactate dehydrogenase A chain (Homo sapiens) (UniProt P00338); assay: qHTS assay for inhibitors of human lactate dehydrogenase; conditions: purified LDHA, NADH/diaphorase-resazurin fluorescence; hits give low values;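 further: values are at about 110 or 230 µM; plate controls were DMSO wells for no effect and wells without enzyme for full effect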
About 740 (0.15%) of roughly 480,000 compounds were called active. The entries come from a sample that favours actives as a whole.
A collection of compounds and their measured activity change
State the answer as a number, implicitly in %.

For orientation, consider the following solved cases.
> print(dat)
                                    compound                              assay.system  unit.symbol  reading
 1   O=C(/C=C/c1cccc(Br)c1)c1ccc(O)c(CCCl)c1  L-lactate dehydrogenase A chain (Homo sapiens) (UniProt P00338)            %    0.183
 2  CC(=O)NC(Cc1c[nH]c2ccccc12)C(=O)N1CCC1 (stereo not given)  L-lactate dehydrogenase A chain (Homo sapiens) (UniProt P00338)            %    -6.31
 3  COc1cccc(-c2c(NC(=O)c3ccc(Cl)cc3)oc3ccccc3c2=O)c1  L-lactate dehydrogenase A chain (Homo sapiens) (UniProt P00338)            %     -5.8
 4  CC1CCC(C(C)C)C(NC(=O)c2ccccc2)C1 (stereo not given)  L-lactate dehydrogenase A chain (Homo sapiens) (UniProt P00338)            %    0.148
 5  Cc1cc(Nc2ccccc2)n2nc(Cc3ccc(Cl)cc3)nc2n1  L-lactate dehydrogenase A chain (Homo sapiens) (UniProt P00338)            %    -32.3
 6    O=C(OCc1ncc(-c2ccccc2)o1)c1c(F)cccc1Cl  L-lactate dehydrogenase A chain (Homo sapiens) (UniProt P00338)            %       -4
 7         Cc1cc2oc(=O)cc(CN3CCCCCCC3)c2cc1C  L-lactate dehydrogenase A chain (Homo sapiens) (UniProt P00338)            %     3.97
 8     CCn1c(SCC(=O)NCC(F)(F)F)nnc1-c1ccncc1  L-lactate dehydrogenase A chain (Homo sapiens) (UniProt P00338)            %   -0.908
 9  CC(C)CCn1c(=O)[nH]c(=O)c2c3c(cnc21)C(=O)CC(c1ccc(F)cc1)C3 (stereo not given)  L-lactate dehydrogenase A chain (Homo sapiens) (UniProt P00338)            %     8.23
10  CCCn1c(N2CCN(C(=O)c3cccc(OC)c3)CC2)nc2sc3c(c2c1=O)CCCC3  L-lactate dehydrogenase A chain (Homo sapiens) (UniProt P00338)            %    -1.23

The compound listed as Cc1nc2cc(NC(C)C(=O)Nc3ccccc3Cl)ccc2o1 (stereo not given) shows activity change equal to -7.75

====

target: L-lactate dehydrogenase A chain (Homo sapiens); assay: qHTS assay for inhibitors of human lactate dehydrogenase; conditions: purified LDHA, NADH/diaphorase-resazurin fluorescence; hits give low values;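 further: values are at about 110 or 230 µM; plate controls were DMSO wells for no effect and wells without enzyme for full effect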
Among all 480,000 compounds or so, about 740 (0.15%) were called active. For the sample, actives were picked, then their nearest neighbours and some compounds at random.
Attribute: activity change
Express your answer in %, writing the number without its unit.

Completed entries (count: 8):
> print(dat)
                                   molecule                              assay.system       observable  reading
1  O=C(C(c1ccccc1)N1CCN(S(=O)(=O)c2cccs2)CC1)N1CCCCC1 (configuration not stated)  L-lactate dehydrogenase A chain (Homo sapiens)  activity change     1.33
2        Cc1ccc(/C=C(/C#N)C(=O)c2ccsc2)cc1C  L-lactate dehydrogenase A chain (Homo sapiens)  activity change     4.55
3         Cc1ccsc1/C=N/n1c(=S)[nH]nc(C)c1=O  L-lactate dehydrogenase A chain (Homo sapiens)  activity change    -32.7
4        c1coc(CNc2ccc3c(c2)ncn3C2CCCCC2)c1  L-lactate dehydrogenase A chain (Homo sapiens)  activity change     13.3
5             Cc1n[nH]c(=O)nc1N/N=C/c1cccs1  L-lactate dehydrogenase A chain (Homo sapiens)  activity change     10.4
6    Cc1ccccc1CC(=O)Nc1ccc(N2CCOCC2)c(Cl)c1  L-lactate dehydrogenase A chain (Homo sapiens)  activity change     -4.8
7        Cn1c(/C(C#N)=C2/CCCCCN2)nc2ccccc21  L-lactate dehydrogenase A chain (Homo sapiens)  activity change     1.28
8  Cc1c(C(=O)C(=O)NC(C)c2ccccc2)c2ccccc2n1C (configuration not stated)  L-lactate dehydrogenase A chain (Homo sapiens)  activity change    -3.86

get_value(item= "COc1ccc(-c2cc(C(=O)O)c3cc(C)ccc3n2)cc1OC" , readout=activity change) returns 6.4

# activity change (molecule: "COc1ccccc1OCCCCCCN1CCN(C)CC1" ) is -2.1

Per the record, "COCCCN(C)Cc1cccc(OC)c1" has activity change of -1.41

activity change in this record for "CN1CCN(CCCCOc2ccccc2-c2ccccc2)CC1" : -36.2
